tested on: human IL-6 (human, UniProt P05231 30-212)
Sequence (P05231 30-212 limits assumed): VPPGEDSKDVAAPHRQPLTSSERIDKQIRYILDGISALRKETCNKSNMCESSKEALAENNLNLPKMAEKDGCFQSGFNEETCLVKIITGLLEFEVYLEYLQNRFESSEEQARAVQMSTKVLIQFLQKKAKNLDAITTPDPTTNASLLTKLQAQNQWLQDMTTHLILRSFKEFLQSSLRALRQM
assay protocol: SPR Biacore, supernatant, Protein A capture, 37 C
measured parameter: kon (M⁻¹ s⁻¹)
Quick note: give the figure in M⁻¹ s⁻¹, leave out the unit.

A selection of reference data follows.
Anti-IL-6 antibody, heavy chain S35H, G66D, L100G / light chain WT (antibody, IgG1, V domains shown, IgG1; variable domains only) VH: EVQLVESGGGLVQPGGSLRLSCAASGFTFSPFAMHWVRQAPGKGLEWVAKISPGGSWTYYSDTVTDRFTFSLDTSKSTAYLQMNSLRAEDTAVYYCARQGWGYYALDIWGQGTLVTVSS VL: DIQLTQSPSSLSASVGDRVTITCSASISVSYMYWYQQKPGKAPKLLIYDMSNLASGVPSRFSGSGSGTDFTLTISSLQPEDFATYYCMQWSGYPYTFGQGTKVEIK: 3.2e+06
Anti-IL-6 antibody, heavy chain S35H, G66D, L100Q / light chain M32L, M50D, N52S, M88Q (antibody, IgG1, V domains shown, IgG1; variable domains only; VL is variant III) VH: EVQLVESGGGLVQPGGSLRLSCAASGFTFSPFAMHWVRQAPGKGLEWVAKISPGGSWTYYSDTVTDRFTFSLDTSKSTAYLQMNSLRAEDTAVYYCARQQWGYYALDIWGQGTLVTVSS VL: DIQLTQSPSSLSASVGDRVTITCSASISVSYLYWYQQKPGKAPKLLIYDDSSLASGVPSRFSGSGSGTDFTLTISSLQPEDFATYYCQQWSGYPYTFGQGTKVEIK: 4.97e+06
Anti-IL-6 antibody, heavy chain S35H, G66D, L100G / light chain M32L, M50D, N52S, M88Q (antibody, IgG1, V domains shown, IgG1; variable domains only; VL is variant III) VH: EVQLVESGGGLVQPGGSLRLSCAASGFTFSPFAMHWVRQAPGKGLEWVAKISPGGSWTYYSDTVTDRFTFSLDTSKSTAYLQMNSLRAEDTAVYYCARQGWGYYALDIWGQGTLVTVSS VL: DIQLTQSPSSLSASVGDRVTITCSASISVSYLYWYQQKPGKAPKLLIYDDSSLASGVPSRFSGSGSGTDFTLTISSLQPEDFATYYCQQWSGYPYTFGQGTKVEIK: 6.87e+06

Query: Please report the recorded kon for Anti-IL-6 antibody, heavy chain S35H, G66D, L100W / light chain M32L, M50D, N52S, M88Q (antibody, IgG1, V domains shown, IgG1; variable domains only; VL is variant III) VH: EVQLVESGGGLVQPGGSLRLSCAASGFTFSPFAMHWVRQAPGKGLEWVAKISPGGSWTYYSDTVTDRFTFSLDTSKSTAYLQMNSLRAEDTAVYYCARQWWGYYALDIWGQGTLVTVSS VL: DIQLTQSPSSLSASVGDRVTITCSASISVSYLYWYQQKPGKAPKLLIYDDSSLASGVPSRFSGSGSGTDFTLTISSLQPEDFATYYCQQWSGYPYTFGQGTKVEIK .
Response: 625000

Query: Look up kon: Anti-IL-6 antibody, heavy chain S35H, G66D, Q99S / light chain WT (antibody, IgG1, V domains shown, IgG1; variable domains only) VH: EVQLVESGGGLVQPGGSLRLSCAASGFTFSPFAMHWVRQAPGKGLEWVAKISPGGSWTYYSDTVTDRFTFSLDTSKSTAYLQMNSLRAEDTAVYYCARSLWGYYALDIWGQGTLVTVSS VL: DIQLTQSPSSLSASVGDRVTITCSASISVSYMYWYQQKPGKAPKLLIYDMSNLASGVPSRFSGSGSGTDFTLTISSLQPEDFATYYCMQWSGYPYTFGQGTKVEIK
Response: 3.96e+06
